- Tested on: OVCAR-8 ovarian
- methodSummary: NCI-60 one-dose screen, 48 h (100 = growth as untreated, 0 = no growth, -100 = all killed)
- testContext: 10 µM unless noted
The panel holds about 83,000 compounds, 20% with a hit somewhere; the sample as a whole holds those more often.
Entries get a class label from measured growth. See ranges: class A = under 30%, class B = from 30% up to 90%, class C = 90% and over

{"compound": "NC(=S)c1csc(CCNC(=O)c2ccccc2)n1", "qualitativeLabel": "class C"}
{"compound": "COc1cc2c(cc1OC)-c1ccc3cc4c(cc3c1N(CCN(C)C)C2)OCO4", "qualitativeLabel": "class A"}
{"compound": "N=C(N)c1ccc(-c2ccc(-c3ccc(Cl)c(Cl)c3)o2)cc1", "qualitativeLabel": "class A"}
{"compound": "CN1C[C@@H](c2ccc(Cl)cc2)[C@]2(NC(=S)N(c3ccc(F)c(Cl)c3)C2=O)[C@@]12C(=O)NC1C=CC(Cl)=C[C@H]12 (stereo partly drawn)", "qualitativeLabel": "class B"}

Input COc1cc(C(=O)Nc2cc(O)c(CC=C(C)C)c(O)c2)cc2c1O[C@]1(C)CC[C@@H](O)C(C)(C)[C@H]1C2 ; output its category
class B

Now try CCCCCOC(=O)c1ccc(NC(=O)CNCC(C)C)cc1 .
class C

Attribution: PubChem BioAssay (NCI)
